All figures here come from patent US7202258B2.

# System: HIV-1
# Protocol description: microbe, parasite or virus in culture
# Settings: Human immunodeficiency virus 1, CCRF-CEM, 168 h, read-out: EC50 (nm)
Readout label: EC50

Endpoint output: EC50 of CCCCNS(=O)(=O)N(CC(C)C)C[C@@H](O)[C@H](Cc1ccccc1)NC(=O)[C@@H](NC(=O)CN(C)C)C(C)(C)C [Entry 1] . Value?
167 nM

Also, CCCCNS(=O)(=O)N(CC(C)C)C[C@@H](O)[C@H](Cc1ccccc1)NC(=O)[C@H](CC(N)=O)NC(=O)c1ccc2ccccc2n1 [Entry 2] please.
23 nM

Also, CC(C)CN(C[C@@H](O)[C@H](Cc1ccccc1)NC(=O)[C@H](CC(N)=O)NC(=O)c1ccc2ccccc2n1)S(=O)(=O)NC(C)(C)C [Entry 4] please.
< 15 nM

Okay, now this molecule:
Endpoint output: EC50 of CC(C)CN(C[C@@H](O)[C@H](Cc1ccccc1)NC(=O)[C@H](CC(N)=O)NC(=O)c1ccc2ccccc2n1)S(=O)(=O)N1CCN(C)CC1 [Entry 3] . Value?
42 nM

###

# Subject of test: HIV protease (Human immunodeficiency virus type 1 group M subtype B, UniProt P04585)
# Construct: HIV protease is diluted in the assay buffer to a final enzyme concentration of 12.3 nanomolar, based on a molecular weight of 10,780
# Protocol description: HIV protease enzyme assay (fluorescence, substrate 2-Ile-Nle-Phe(p-NO2)-Gln-ArgNH2)
# Format: biochemical
Readout label: IC50 (nM)
I only need the number, in nM, no unit after it.

Use these answered entries as a reference point.
Endpoint output: IC50 of CCCCNS(=O)(=O)N(CC(C)C)C[C@@H](O)[C@H](Cc1ccccc1)NC(=O)[C@@H](NC(=O)CN(C)C)C(C)(C)C . Value?
40

Also, CC(C)CN(C[C@@H](O)[C@H](Cc1ccccc1)NC(=O)[C@H](CC(N)=O)NC(=O)c1ccc2ccccc2n1)S(=O)(=O)N1CCN(C)CC1 please.
3

Also, CCCCNS(=O)(=O)N(CC(C)C)C[C@@H](O)[C@H](Cc1ccccc1)NC(=O)[C@H](CC(N)=O)NC(=O)c1ccc2ccccc2n1 please.
5

Okay, now this compound:
Endpoint output: IC50 of CC(C)CN(C[C@@H](O)[C@H](Cc1ccccc1)NC(=O)[C@H](CC(N)=O)NC(=O)c1ccc2ccccc2n1)S(=O)(=O)NC(C)(C)C . Value?
2

###

# Tested on: CEM cells
# Protocol description: Intrinsic toxicity of test compound in uninfected CEM cells (MTT)
# Type: cell-based
# Settings: human, 7 days
Readout label: TD50 (nm)

Use these answered entries as a reference point.
Endpoint output: TD50 (nm) of CC(C)CN(C[C@@H](O)[C@H](Cc1ccccc1)NC(=O)[C@H](CC(N)=O)NC(=O)c1ccc2ccccc2n1)S(=O)(=O)N1CCN(C)CC1 . Value?
28,000 nM

Also, CCCCNS(=O)(=O)N(CC(C)C)C[C@@H](O)[C@H](Cc1ccccc1)NC(=O)[C@H](CC(N)=O)NC(=O)c1ccc2ccccc2n1 please.
65,000 nM

Also, CCCCNS(=O)(=O)N(CC(C)C)C[C@@H](O)[C@H](Cc1ccccc1)NC(=O)[C@@H](NC(=O)CN(C)C)C(C)(C)C please.
56,000 nM

Okay, now this compound:
Endpoint output: TD50 (nm) of CC(C)CN(C[C@@H](O)[C@H](Cc1ccccc1)NC(=O)[C@H](CC(N)=O)NC(=O)c1ccc2ccccc2n1)S(=O)(=O)NC(C)(C)C . Value?
39,000 nM
